Reference source: the kinase profiling compilation of Christmann-Franck et al. (2016)

- ASSAY TARGET: MST1R (human) (UniProt Q04912)
- Sequence (Q04912 whole entry, looked up): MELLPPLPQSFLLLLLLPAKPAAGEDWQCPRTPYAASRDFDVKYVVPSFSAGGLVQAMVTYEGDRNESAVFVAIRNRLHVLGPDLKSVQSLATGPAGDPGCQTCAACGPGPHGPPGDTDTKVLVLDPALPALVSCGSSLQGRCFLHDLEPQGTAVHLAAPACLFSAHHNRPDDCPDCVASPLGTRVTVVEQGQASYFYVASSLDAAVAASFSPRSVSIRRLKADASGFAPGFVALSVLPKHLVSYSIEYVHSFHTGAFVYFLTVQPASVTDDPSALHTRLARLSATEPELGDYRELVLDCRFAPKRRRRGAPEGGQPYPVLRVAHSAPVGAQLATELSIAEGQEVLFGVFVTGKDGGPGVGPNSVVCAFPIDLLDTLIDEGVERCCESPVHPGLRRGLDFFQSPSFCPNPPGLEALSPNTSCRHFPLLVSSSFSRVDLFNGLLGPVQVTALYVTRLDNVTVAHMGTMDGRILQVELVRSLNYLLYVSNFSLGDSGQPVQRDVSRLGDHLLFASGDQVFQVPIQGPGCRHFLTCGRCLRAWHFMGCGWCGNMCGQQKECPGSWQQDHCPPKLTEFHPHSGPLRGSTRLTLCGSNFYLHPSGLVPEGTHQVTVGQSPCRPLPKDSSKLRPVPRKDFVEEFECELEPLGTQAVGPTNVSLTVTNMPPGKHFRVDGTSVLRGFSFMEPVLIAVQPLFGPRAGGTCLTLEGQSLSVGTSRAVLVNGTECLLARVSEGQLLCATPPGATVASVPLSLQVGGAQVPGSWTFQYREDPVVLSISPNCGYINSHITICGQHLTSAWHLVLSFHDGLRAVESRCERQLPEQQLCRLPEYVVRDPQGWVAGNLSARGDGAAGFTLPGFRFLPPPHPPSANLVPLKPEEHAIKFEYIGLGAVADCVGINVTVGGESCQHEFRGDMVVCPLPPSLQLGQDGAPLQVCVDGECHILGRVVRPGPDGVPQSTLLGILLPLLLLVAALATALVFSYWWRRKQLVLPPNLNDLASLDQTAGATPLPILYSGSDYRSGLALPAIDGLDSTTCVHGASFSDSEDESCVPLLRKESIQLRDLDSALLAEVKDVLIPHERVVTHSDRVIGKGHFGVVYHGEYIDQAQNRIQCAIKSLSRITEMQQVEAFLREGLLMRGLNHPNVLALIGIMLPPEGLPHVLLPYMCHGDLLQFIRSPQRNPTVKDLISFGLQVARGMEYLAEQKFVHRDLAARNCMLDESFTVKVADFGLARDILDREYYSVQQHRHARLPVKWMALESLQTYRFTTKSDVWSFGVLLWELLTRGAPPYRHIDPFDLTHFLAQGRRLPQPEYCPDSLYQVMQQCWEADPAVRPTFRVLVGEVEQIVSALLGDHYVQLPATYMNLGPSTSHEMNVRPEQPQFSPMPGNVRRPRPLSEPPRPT
- ASSAY: radiometric filter-binding kinase assay, Kinase HotSpot
- STATED CONDITIONS: compound 0.5 µM; ATP 10 µM
OUTCOME MEASURE: residual activity (%)
Quick reminder: number only, in %, skip the unit.

Examples with answers:
input: Quick one: residual activity for NC(=O)c1ccc(N(C(N)=O)c2c(F)cccc2F)nc1-c1ccc(F)cc1F ?
output: 90.1

input: Now consider Clc1ccc(Nc2nnc(Cc3ccncc3)c3ccccc23)cc1 and answer again.
output: 91.6

input: Now consider CC(C)[C@H](CO)Nc1nc(Nc2cccc(Cl)c2)c2ncn(C(C)C)c2n1 and answer again.
output: 90.6

Now for a further compound.
input: Quick one: residual activity for CCCNC(=O)Nc1ccc(Oc2ncnc3cc(OC)c(OC)cc23)cc1Cl ?
output: 89.3
